Data origin: ChEMBL document CHEMBL1201862

- System: SF-295
- assay.text: NCI tumour cell line growth inhibition, 48 h
Activity calls are given as the source filed them. Rule as the data show it: active = GI50 up to about 1.1 µM and inactive = higher.
Answer with one of the outcomes given here: active, inactive

Reference set (2 entries):
[
  {
    "compound": "O=C(O)CCC(=O)Oc1ccc(O)c2c1CCCC2=O",
    "group": "inactive"
  },
  {
    "compound": "Cc1cc(C)nc(NS(=O)(=O)c2ccc(NNC(=O)c3cccc4c(=O)c5ccccc5[nH]c34)cc2)n1",
    "group": "inactive"
  }
]

Lab note: next compound to report on.
**Query** Recorded call for CC1CC2(CCC1OCc1ccccc1)OCCO2 (stereo not drawn) ?
**Result** inactive

----------
- Test system: K562
- assay.text: NCI tumour cell line growth inhibition, 48 h
Calls of active or inactive are those of the source. Rule as the data show it: active = GI50 up to about 1.1 µM and inactive = higher.
Answer with one of the outcomes given here: YES = active, NO = inactive

Reference set (4 entries):
[
  {
    "molecule": "COc1cccc(Nc2nc(C)c([N+](=O)[O-])c(Nc3cccc(OC)c3)n2)c1",
    "group": "NO"
  },
  {
    "molecule": "COc1ccc(/C(Nc2ccccc2)=C(\\CCl)c2ccccc2)cc1OC",
    "group": "NO"
  },
  {
    "molecule": "CC(C)(C)OC(=O)N1CCc2[nH][nH]c(=O)c2C1",
    "group": "NO"
  },
  {
    "molecule": "O=C(O)CCC(C(=O)O)N1C(=O)c2ccccc2C1=O (stereo unspecified)",
    "group": "NO"
  }
]

**Query** Recorded call for CCCC(=O)N[C@H]1C2C3CC4C5CC(C42)C1(C)C53 (stereo partly specified) ?
**Result** NO

**Query** Recorded call for S=C(/N=C1/NCC(CN2CCN(c3ccccc3)CC2)O1)Nc1ccccc1 (stereo unspecified) ?
**Result** NO

**Query** Recorded call for CN1Cc2cc3cc4c(cc3nc2N(C)C1)OCCO4 ?
**Result** NO

**Query** Recorded call for COC(=O)c1cc(-c2cccn2C)c2c(c1C(=O)OC)c1ccccc1n2C ?
**Result** NO

**Query** Recorded call for COc1ccc2nc3ccccc3c(NCCCCCCN(C)CCCl)c2c1 ?
**Result** YES

**Query** Recorded call for CC[C@H](C)[C@H]1NC(=O)[C@@H](NC(=O)[C@@H](CC(C)C)N(C)C(=O)C2CCCN2C(=O)[C@H](C)O)[C@@H](C)OC(=O)[C@H](Cc2ccc(OC)cc2)N(C)C(=O)[C@@H]2CCCN2C(=O)[C@H](CCCCNC(=O)OCc2ccccc2)NC(=O)[C@H](C)C(=O)[C@H](C(C)C)OC(=O)C[C@@H]1O (stereo partly specified) ?
**Result** NO

**Query** Recorded call for CCCC[C@H]1CCN2C[C@@H](O)[C@@H](O)[C@H]2[C@@H]1O ?
**Result** NO

**Query** Recorded call for COC(=O)c1ccccc1Nc1nc(-c2cccs2)nc2cc(OC)c(OC)cc12 ?
**Result** NO

----------
- System: RXF 631
- assay.text: NCI tumour cell line growth inhibition, 48 h
Calls of active or inactive are those of the source. Rule as the data show it: active = GI50 up to about 1.1 µM and inactive = higher.
metric: GI50

Some solved entries appear below for comparison.
[
  {
    "molecule": "CNC(=O)NCCCCC(NC(C)=O)C(=O)NCc1ccccc1 (stereo not drawn)",
    "reading": "> 100 µM (inactive)"
  },
  {
    "molecule": "COC(=O)C(CCS(=O)(=O)CC(=O)C(=O)Nc1cccc(C(C)=O)c1)C(=O)OC",
    "reading": "> 100 µM (inactive)"
  },
  {
    "molecule": "COC(=O)c1cc(-c2cccn2C)c2c(c1C(=O)OC)c1ccccc1n2C",
    "reading": "80.4 µM (inactive)"
  },
  {
    "molecule": "O=C1/C(=C/c2cc(O)c(O)c(O)c2)Oc2cc(O)cc(OC3OC(CO)C(O)C(O)C3O)c21 (stereo not drawn)",
    "reading": "1.81 µM (inactive)"
  },
  {
    "molecule": "O=C(CC1(O)C(=O)Nc2c(Cl)cc(Cl)cc21)c1ccc(Br)cc1 (stereo not drawn)",
    "reading": "12.4 µM (inactive)"
  },
  {
    "molecule": "Cc1[nH]c2ccccc2c1C(=O)CC1(O)C(=O)Nc2ccccc21 (stereo not drawn)",
    "reading": "> 100 µM (inactive)"
  },
  {
    "molecule": "COC(=O)C1Cc2c([nH]c3ccccc23)C(C2CCCCC2)N1 (stereo not drawn)",
    "reading": "> 100 µM (inactive)"
  }
]

Observed GI50, RXF 631, Cc1cccc(NC(=O)/C(=N\N)C(c2cnc3ccc([N+](=O)[O-])cc3n2)[N+](=O)[O-])c1C (stereo not drawn) : > 100 µM (inactive)
